tested on: CCRF-CEM leukemia; assay: NCI-60 one-dose screen, 48 h; conditions: 10 µM unless noted
About 83,000 compounds went through this panel and 20% of them were active in at least one assay; those are over-represented in the sample as a whole. The source made the active and inactive calls. The calls were made as follows: active = growth percent below 10; inactive = the rest.
Classes used: active, inactive

compound: COc1ccc2c(O)c(/C=C3\N=Nc4nc(C)ccc43)oc2c1CC1CCNCC1
class-name: inactive

compound: CC(Sc1ccccc1)C(=O)O (stereo not given)
class-name: inactive

compound: Nc1ncc(-c2ccc3ncnc(N4CCc5ccc(Cl)cc54)c3c2)cc1C(F)(F)F
class-name: inactive

compound: N#Cc1c(-c2cccc(F)c2)cc(-c2cccnc2)[nH]c1=O
class-name: inactive

compound: COc1ccc(CCNC(=O)COc2cc3c(Nc4ccc(F)c(Cl)c4)ncnc3cc2OC)cc1OC
class-name: inactive

compound: Cc1c(CC(=O)OCCO)cc(-c2ccc(Cl)cc2)n1-c1ccccc1
class-name: inactive

compound: Cc1ccc(S(=O)(=O)Nc2cc(Sc3ccccc3)c(O)c3ccccc23)cc1
class-name: inactive

compound: COc1ccc(-c2[nH]c3ccccc3c2-c2ccc(OC)cc2)cc1
class-name: active

compound: COCCn1cc(-c2nc(-c3cn(CCOC)c4ncccc34)cs2)c2ccccc21
class-name: inactive

compound: O=C1C(N2CCOCC2)=C(I)C(=O)c2ncccc21
class-name: inactive

compound: N#CSc1c[nH]c2ccc(/C=C/C(=O)/C=C(/C=C/c3ccc4[nH]cc(SC#N)c4c3)OB(F)F)cc12
class-name: active

compound: COc1ccc(/C=N/NC(=O)CN2CCN(c3cc4c(cc3F)c(=O)c(C(=O)O)cn4C3CC3)CC2)cc1O
class-name: inactive

compound: CC(=O)/C=C/c1ccc(OCc2ccc(C(C)(C)C)cc2)cc1
class-name: inactive

compound: O=C1/C(=C/c2ccc(-c3cccc(C(F)(F)F)c3)o2)SC(=S)N1CCc1ccc(O)cc1
class-name: inactive

compound: [Cu+].[NH-][C@H]1C[N-]C(=O)[C@H]([C@H]2CCN=C(N)N2)[N-]C(=O)/C(=C\NC(N)=O)[N-]C(=O)[C@H](CNC(=O)C[C@@H](N)CCCN)[N-]C(=O)[C@H](CO)[N-]C1=O
class-name: inactive

compound: CCN1C(=S)N(CC)C2C1NC(=S)N2/N=C/C=C/c1ccccc1 (stereo not given)
class-name: inactive

compound: CCCCCCNC(=O)Oc1ccc(/C(=C(/CC)Cc2ccccc2)c2ccc(OCCCN(C)C)cc2)cc1
class-name: inactive

compound: O=C1C(Nc2ccc(Cl)cc2)=C(I)C(=O)c2ncccc21
class-name: active

compound: O=C(N/N=C/c1ccc(O)cc1O)c1cccc(Nc2ccnc(C(F)(F)F)c2)c1
class-name: active

compound: CC1=C2[C@@H](CC1)[C@]1(C)O[C@@](C3CC3)(C[C@H]1OC(=O)CO)[C@H]2OC(=O)/C=C/c1ccccc1
class-name: inactive

compound: Fc1ccccc1-c1cnn2cc(-c3ccccc3)cnc12
class-name: inactive

compound: COC(=O)[C@H]1Cc2c([nH]c3ccccc23)[C@@H](c2cccs2)N1
class-name: inactive

compound: CCCCC1=C(Br)C(=O)c2nc(C)ccc2C1=O
class-name: inactive

compound: Cc1nc2sc(C(=O)Nc3cccc(Cl)c3C)c(N)c2cc1C(O)c1ccccc1 (stereo not given)
class-name: inactive

compound: CCOC(=O)c1nc2c3ccccc3cnn2c1C(=O)c1ccc(OC)cc1
class-name: inactive

compound: N#C/C(=C\c1ccccc1Cl)c1cc2ccccc2[nH]1
class-name: active

compound: Cc1nn(-c2nc(-c3cc4ccccc4oc3=O)cs2)c(C)c1N=Nc1ccccc1
class-name: inactive

compound: C=C1C(=O)O[C@H]2[C@H]1CC/C(COC(=O)NCCCCNC(=O)OC/C1=C/CC[C@@]3(C)O[C@H]3[C@H]3OC(=O)C(=C)[C@@H]3CC1)=C\CC[C@@]1(C)O[C@@H]21
class-name: active

compound: CCC(=O)Oc1cc(Cl)c(Cl)cc1Cl
class-name: inactive

compound: CCCNNC(=O)/C=C/c1ccc(CNCCc2c(C)[nH]c3ccccc23)cc1
class-name: inactive

compound: CCOc1nc(-c2ccccc2)cc2c(O)c(C(=O)N/N=C/c3ccc(N(C)C)cc3)[nH]c(=O)c12
class-name: inactive

compound: Cn1cc(-c2nonc2-c2cn(C)c3ccc(Br)cc23)c2ccccc21
class-name: inactive

compound: NC(=O)c1c(NC(=O)/C=C/c2cccs2)sc2c1CCC(=O)C2
class-name: inactive

compound: OCc1cc(CN2CCCCC2)c(O)c2ncccc12
class-name: inactive

compound: Cc1ccc(-c2nc3nc(-c4ccc(Cl)cc4)nc(N4CCCNCC4)c3o2)cc1
class-name: active

compound: COc1ccc(/C=C/C(=O)c2cc3c(N)c(C(=O)Nc4ccccc4Cl)sc3nc2C)cc1
class-name: inactive

compound: O=C(NCc1ccc(Cn2c(=O)sn(-c3ccc(Cl)cc3)c2=O)cc1)OCc1ccc2c(Cl)cc(Cl)c(O)c2n1
class-name: inactive

compound: O=C(Cc1ccc(F)cc1)c1ccccc1
class-name: inactive

compound: CCCc1cc(C(N)=S)ccn1
class-name: inactive

compound: Cc1ccc2c(c1)C(C)Cc1c(ncnc1-n1cnc3cc(C)ccc31)N2C (stereo not given)
class-name: inactive

###

Listed below: growth values for each entry.
tested on: NCI/ADR-RES ovarian; assay: NCI-60 one-dose screen, 48 h (100 = growth as untreated, 0 = no growth, -100 = all killed); details: 100 µM
About 83,000 compounds went through this panel and 20% of them were active in at least one assay; those are over-represented in the sample as a whole.

smiles-text: CC(=O)/C=C/c1ccc(OCc2ccc(C(C)(C)C)cc2)cc1
growth [%]: 7.42

smiles-text: CC(=O)/C=C/c1ccc(N(C)Cc2ccc(C(C)(C)C)cc2)cc1
growth [%]: -60.1

smiles-text: CC(=O)/C=C/c1ccc(OCc2ccc(Cl)cc2)cc1
growth [%]: 18

smiles-text: COc1ccc(C(=O)/C=C/c2ccc(OCc3ccc(Cl)cc3)cc2)cc1OC
growth [%]: 0.0169

smiles-text: CC(=O)/C=C/c1ccc(N(CCO)Cc2ccc(C(C)(C)C)cc2)cc1
growth [%]: -88.3

###

system: HOP-62 NSCLC; assay: NCI-60 one-dose screen, 48 h (100 = growth as untreated, 0 = no growth, -100 = all killed); conditions: 10 µM unless noted
Compounds without any hit were thinned out: in the full panel of roughly 83,000, 20% have a hit. Activity calls are given as the source filed them. The calls were made as follows: active = growth percent below 10; inactive = the rest.

compound: O=C(Nc1ccc2ccccc2c1)c1cc2ccccc2cc1O
growth: 98.8% (inactive)
--
compound: Nc1ccc(-c2ccc(N)c(Br)c2)cc1Br
growth: 55.4% (inactive)
--
compound: COc1cc(/C=C(/c2ccccc2)[N+](=O)[O-])c(OC)c2c1OCO2
growth: -19.6% (active)
--
compound: Cc1ccc(-c2nc(SCC(=O)c3ccc(C#N)cc3)[nH]c(=O)c2C#N)cc1
growth: 103% (inactive)
--
compound: O=c1oc2c(Br)cc(Br)cc2cc1-c1cc(-c2ccc(-c3cc(-c4cc5cc(Br)cc(Br)c5oc4=O)nc(-c4cc5cc(Br)cc(Br)c5oc4=O)c3)cc2)cc(-c2cc3cc(Br)cc(Br)c3oc2=O)n1
growth: 104% (inactive)
--
compound: Nc1nc(Nc2cccnc2)sc1C(=O)c1ccccc1F
growth: 21.2% (inactive)
--
compound: CCCCC1COc2cccc3c2N1C=C/C3=C\C(=O)N(C)c1cccc(Cl)c1 (configuration not stated)
growth: 109% (inactive)
--
compound: O=C1C=C(Nc2ccccc2)c2ncccc2C1=O
growth: -90.4% (active)
--
compound: Cc1nc2sc(C(=O)Nc3cccc4ncccc34)c(N)c2cc1C(C)O (configuration not stated)
growth: 68.1% (inactive)
--
compound: CCOC(=O)c1cnn(CC(O)CC)c1NC(=O)NCc1ccccc1C(F)(F)F (configuration not stated)
growth: 90.8% (inactive)
--
compound: C[N+]1=C(/C=C\C=C\c2ccccc2)C(C)(C)c2ccccc21
growth: 52% (inactive)
--
compound: CCNC(=O)Nc1ncccc1OCc1ccc(F)cc1
growth: 95.3% (inactive)
--
compound: Cc1nnc(NS(=O)(=O)c2ccc(N=Nc3ccc(N)nc3N)cc2)s1
growth: 113% (inactive)
--
compound: COc1ccc(-c2ccccc2)cc1-c1c(Nc2cc(Cl)cc(Cl)c2O)c(=O)c1=O
growth: 2.04% (active)
--
compound: CC12CCC(C(=O)CC1=O)C2(C)C (configuration not stated)
growth: 110% (inactive)
--
compound: COc1ccc(N2CCN(S(=O)(=O)c3oc(-c4ccccc4)nc3C#N)CC2)cc1
growth: 106% (inactive)
--
compound: c1ccc(Cc2cccc[n+]2C(c2ccccc2)c2ccccc2)cc1
growth: 72% (inactive)
--
compound: COc1ccc(-c2c[nH]c(C(=O)O)c2-c2cc(OC)c(OC)c(OC)c2)cc1
growth: 37.3% (inactive)
--
compound: Cc1cccc(-c2nnc(SCC(=O)Nc3ncc(Cc4ccccc4)s3)n2N2C(=O)CSC2=S)c1
growth: 30.3% (inactive)
--
compound: COC(=O)/C=C1/SC(=Nc2ccc([N+](=O)[O-])cc2)N(CCc2c[nH]c3ccccc23)C1=O
growth: 96.7% (inactive)
--
compound: Clc1ccc2c(NCCN3CCN(c4ccnc(N5CCCC5)n4)CC3)ccnc2c1
growth: 77.3% (inactive)
--
compound: COC(=O)c1[nH]nc(OC)c1C1(C(C#N)c2nc3ccccc3s2)CCCc2ccccc21 (configuration not stated)
growth: 85% (inactive)
--
compound: CCCCCCCCCCCCCCCCCCn1cc(COc2ccc(C=O)cc2)nn1
growth: 104% (inactive)
--
compound: FC(F)(F)Sc1ccc(/C=C/c2cc(/C=C/c3ccc(SC(F)(F)F)cc3)n(-c3ccccc3)n2)cc1
growth: 90.8% (inactive)
--
compound: Cc1c(C(=O)OCCCCOC(=O)c2c(C)n(C)c3scc[n+]23)[n+]2ccsc2n1C
growth: 109% (inactive)
--
compound: Oc1ccccc1C=Nc1ccc(N2CCN(c3ccccc3)CC2)cc1
growth: 74.7% (inactive)
--
compound: Cc1cc2nc(C(Cl)Cl)nc(-c3ccc(Cl)cc3)n2n1
growth: -8.28% (active)
--
compound: N#CC1=C(N)Oc2c(sc3c(Br)cccc23)C1c1ccccn1 (configuration not stated)
growth: 30.9% (inactive)
--
compound: CCN1CCN(CC(=O)Nc2nc3ccc(NCc4ccc(C)cc4)cc3s2)CC1
growth: 78.5% (inactive)
--
compound: COC(=O)c1nc(-c2ccc(C)cc2)oc1S(=O)(=O)c1ccc(Cl)cc1
growth: 97.4% (inactive)
--
compound: O=C(Cc1ccc(F)cc1)c1ccccc1
growth: 109% (inactive)
--
compound: O=c1ccc2nc(-c3ccccn3)nn(-c3ccccc3)c-2c1
growth: 93.4% (inactive)
--
compound: O=C(N/N=C/c1ccc(O)cc1O)c1cccc(Nc2ccnc(C(F)(F)F)c2)c1
growth: 14.3% (inactive)
--
compound: C#CCOCC1CN(C)C(=O)O1 (configuration not stated)
growth: 131% (inactive)
--
compound: O=C(/C=C/c1ccc([N+](=O)[O-])cc1)c1ccccc1
growth: 83% (inactive)
--
compound: O=C(Nc1ncc(Cc2cccc(C(F)(F)F)c2)s1)c1ccc(-n2cnnn2)cc1
growth: 104% (inactive)
--
compound: Cc1nc(-n2[nH]c(=O)ccc2=O)sc1N=Nc1ccccc1
growth: 94.3% (inactive)
--
compound: Cc1ccc2c(c1)C(C)Cc1c(ncnc1-n1cnc3cc(C)ccc31)N2C (configuration not stated)
growth: 27.6% (inactive)
--
compound: C#CCn1cnc2cnc(Nc3cccc(NC(=O)CCl)c3)nc21
growth: 4.26% [6.25 µM] (active)
--
compound: C=C(CN1CC=CCC1)[C@@H]1CC[C@]2(COC(C)=O)CC[C@]3(C)[C@H](CC[C@@H]4[C@@]5(C)CC[C@H](O)C(C)(C)[C@@H]5CC[C@]43C)[C@@H]12
growth: 107% (inactive)
--
compound: Cc1ccc(-c2nc(C#N)c(S(=O)(=O)N(C)C)o2)cc1
growth: 96.7% (inactive)
--
compound: COc1ccc(-c2ccc(-c3ccc(C(=N)N)cn3)o2)cc1Cl
growth: 67.5% (inactive)
